Measured values drawn from PubChem BioAssay for this set.

Exercise: for every item that follows, state its recorded composite z-score.
# Tested on: glycogen synthase kinase-3 (GSK3A per assay name; protocol says GSK3B)
# procedure_text: GSK3 binders on small-molecule microarrays, primary screen, biochemical, small-molecule microarray, 635 nm fluorescence, GSK3A (AID 1103); also: the record names both GSK3A and GSK3B
# measurement_conditions: small-molecule microarray binding, fluorescence 635 nm; higher = more signal

>>> result("[N-]=[N+]=NCc1ccccc1[C@H]1OC(c2ccc(OCCCO)cc2)=N[C@@]1(Cc1ccccc1)C(=O)NCc1ccccc1")
1.27
>>> result("O=C1OCC=C[C@H]2OC34C=CCN(c5ccc6ccccc6c5)C(=O)[C@H]3N(CCCCCCO)C(=O)[C@@H]4[C@@H]12 (stereo partly drawn)")
-1.12

Report composite z-score for each item below.
1. COc1ccc([Si](C)(C)[C@H]2[C@H](CC(=O)N3CCC[C@H]3CO)O[C@@]3(C(=O)N(Cc4cccc(N5C(=O)c6cccc7cccc5c67)c4)c4ccccc43)[C@@H]2C)cc1
2. C=CCOC(=O)[C@H]1[C@@H]2C(=O)O[C@@H](c3ccccc3)[C@@H](c3ccccc3)N2[C@@H](c2ccc(OCCOC(=O)[C@@H]3C[C@@H]4C(=O)N5CCC[C@H]5C(=O)N4[C@@H]3c3cccc(OCCO)c3)cc2)[C@]12C(=O)Nc1ccccc12
3. C=CCC(OC(C)=O)[C@@H]1[C@@H](N(Cc2cccc3ccccc23)C(=O)c2ccc(-c3ccccc3)cc2)c2cc(OCCCO)ccc2N1C(=O)Cc1ccc(OC)cc1 (stereo partly drawn)
4. COC(=O)[C@@]1(Cc2ccc(F)cc2)[C@@H]2[C@@H](CC(=O)[C@H]2CC(=O)C(=O)N(C)C)CN1C(=O)c1ccccc1
5. [N-]=[N+]=NCc1ccccc1C[C@]1(C(=O)N2CCOCC2)N=C(c2ccc(OCCCO)cc2)O[C@H]1c1ccccc1N=[N+]=[N-]
6. COCCCNC(=O)[C@@]1(Cc2ccccc2N=[N+]=[N-])N=C(c2ccc(OCCCO)cc2)O[C@H]1c1ccccc1N=[N+]=[N-]

Response given:
1. 0.483
2. 1.31
3. 0.0341
4. 1.09
5. 1.33
6. 0.82

For each entry beneath this line, provide reported composite z-score.
1. COc1ccc([C@H]2C[C@H]3C(Br)=C[C@@H]2C(=O)[C@]32CO2)cc1
2. C=CC[C@]1(C(=O)N2CCCCC2)N=C(c2ccc(OCCCO)cc2)O[C@H]1c1ccccc1
3. C=CCNC(=O)[C@@H]1[C@H]2C(=O)O[C@H](c3ccccc3)[C@H](c3ccccc3)N2[C@H](c2ccc(OCCO)cc2)[C@@]12C(=O)Nc1ccc(C#CCCO)cc12

Response given:
[-0.515, 1.3, 1.27]

Consider the following items and state reported composite z-score for each.
1. COC(=O)[C@@]1(Cc2ccc(F)cc2)[C@H]2c3cc(C(=O)N4CCCC4)n(Cc4ccc(C)o4)c3C[C@H]2CN1C(=O)c1ccccc1
2. CC(C)[C@@H](CO)NC(=O)[C@H]1[C@@H](c2ccccc2)N(c2ccccc2)O[C@@H]1C

Response given:
1. 0.899
2. -0.418
